System: U2OS
protocol.details: Multiplex assay against U2OS
Format: toxicity, cell-based
test.settings: human, 48 h, 1 µM, compound concentration 1 uM, replicate 1
This listing pairs compounds with measured Population Membrane Permeable-Phenotype (%).
Supply the numeric figure in %, leaving out any unit text.

compound	tested.target	reported.value
O=C1COc2nccc(-c3ccccc3F)c2CN1Cc1cc(C(F)(F)F)cc(C(F)(F)F)c1	U2OS	5
Cc1nc2ccc(Oc3ccc(F)cc3)cc2c(=O)n1C[C@H]1CCCN(C(C)C)C1.Cl	U2OS	7
CN(C)CCCc1cc(C(=O)Nc2ccc(-c3ccncc3)cc2)ccc1O.Cl.Cl	U2OS	5
COc1cc(C(=O)N(CCCc2ccccc2)Cc2ccc(CC(=O)O)cc2)cc(OC)c1C	U2OS	5
C[C@H](NC(=O)c1c(C(F)F)nn(C)c1Oc1cccc(C(F)(F)F)c1)c1ccc(C(=O)O)cc1	U2OS	3

### Prompt Name the reported Population Membrane Permeable-Phenotype (%) value associated with the compound CCCN1CCC[C@@H]2Cc3n[nH]cc3C[C@H]21.Cl [QUINPIROLE HYDROCHLORIDE]
### Response 4

### Prompt Name the reported Population Membrane Permeable-Phenotype (%) value associated with the compound COc1c(C)cc(NC(=O)c2nn(Cc3ccc(F)cc3)c3c2CN(C(=O)c2ccc[nH]2)C[C@]3(C)C(N)=O)cc1C
### Response 4

### Prompt Name the reported Population Membrane Permeable-Phenotype (%) value associated with the compound CNC[C@H](O)c1ccc(O)c(O)c1 [EPINEPHRINE]
### Response 9

### Prompt Name the reported Population Membrane Permeable-Phenotype (%) value associated with the compound c1cc(OCCCN2CCCCC2)ccc1CN1CCCCC1
### Response 4

### Prompt Name the reported Population Membrane Permeable-Phenotype (%) value associated with the compound CC[C@H]1OC(=O)[C@H](C)[C@@H](O[C@H]2C[C@@](C)(OC)[C@@H](O)[C@H](C)O2)[C@H](C)[C@@H](O[C@@H]2O[C@H](C)C[C@H](N(C)C)[C@H]2O)[C@@]2(C)CC(C)=C(O2)[C@H](C)[C@@H](O)[C@]1(C)O
### Response 13
